Origin of the recorded values: ChEMBL document CHEMBL5034018

pKd values recorded for Oxysterols receptor LXR-alpha (Homo sapiens, UniProt Q13133)
Note: pKd values are expressed as the negative base-10 logarithm of concentration in M.

| Compound | Quantitative Readout |
| --- | --- |
| C/C=C(\C)[C@H](O)[C@H](C)/C=C(C)/C=C/C/C(C)=C/Cc1nc(OC)c(OC)c(O)c1C [PIERICIDIN A] | 5.49 |

API: the following record is the query input.
Look up pKd with Oxysterols receptor LXR-alpha (Homo sapiens, UniProt Q13133) for this compound: O=C(O)Cc1cccc(OCCCN(Cc2cccc(C(F)(F)F)c2Cl)CC(c2ccccc2)c2ccccc2)c1
Sequence (Q13133 whole entry): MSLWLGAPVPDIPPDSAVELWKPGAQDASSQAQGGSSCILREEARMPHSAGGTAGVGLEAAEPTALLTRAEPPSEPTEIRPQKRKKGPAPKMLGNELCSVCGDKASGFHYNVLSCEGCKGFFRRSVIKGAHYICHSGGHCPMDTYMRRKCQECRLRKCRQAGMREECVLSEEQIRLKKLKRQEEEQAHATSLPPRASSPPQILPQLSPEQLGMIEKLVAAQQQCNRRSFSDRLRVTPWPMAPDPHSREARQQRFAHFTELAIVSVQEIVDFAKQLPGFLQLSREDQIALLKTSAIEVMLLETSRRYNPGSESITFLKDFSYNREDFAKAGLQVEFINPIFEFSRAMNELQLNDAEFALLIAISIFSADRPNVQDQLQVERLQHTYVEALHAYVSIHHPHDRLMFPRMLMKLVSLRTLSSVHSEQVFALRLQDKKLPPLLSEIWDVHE
5.16
